Tested on: Plasmodium falciparum
Assay: GSK_TCMDC: Inhibition of Plasmodium falciparum 3D7 in whole red blood cells, using parasite LDH activity as an index of growth. Test compounds present at 2uM
Format: functional
So I've got a bunch of molecules here, and I need their Inhibition values.
In your response, put the unit directly after the numeric value.

Recorded Inhibition of CSC1=NC(C)(C)CC2(CC(c3cccc(C)c3)c3cc(Cl)c(O)cc3O2)N1 (centres undefined) , please.
100%

Recorded Inhibition of CCCCCN1CCC(NC(=O)c2ccc(C(=O)Nc3ccc(C(C)C)cc3)cc2)CC1.O=C(O)C(F)(F)F , please.
98%

Recorded Inhibition of CCCCc1ccc(-c2ccc3[nH]c(C)c(Br)c(=O)c3c2)cc1 , please.
97%

Recorded Inhibition of Cc1cc(O)c(-c2ccc(OCc3ccc(Cl)cc3)cc2)c(C)n1 , please.
93%

Recorded Inhibition of Cc1ccc(F)c(CN2CCC(N3CC(c4ccccc4)(c4ccccc4)OC3=O)CC2)c1Cl , please.
95%

Recorded Inhibition of N#Cc1cc([N+](=O)[O-])ccc1-n1nc(-c2cccc(Cl)c2)n(CC2CCCO2)c1=S (centres undefined) , please.
91%

Recorded Inhibition of Fc1cccc(COc2ccc(Nc3ncnc4sc(C#C[C@H]5CC[C@H](CNCC(F)(F)F)N5)cc34)cc2Cl)c1 , please.
100%

Recorded Inhibition of COc1cccc(COCC(O)CN(CCc2ccccn2)C(=O)c2ccccc2F)c1 (centres undefined) , please.
97%

Recorded Inhibition of COc1ccc(NC(=O)/C=C/c2ccccc2Cl)cc1OCCN1CCC(NCc2cccnc2)CC1 , please.
100%
